Test system Cytochrome P450 2C19 (Homo sapiens), IC50 listed for each of the compounds.
parameter-measured: IC50 (nM)

compound=C[C@@H]1COCCN1c1nc(-c2cccc3[nH]ccc23)nc2c1CN(C(=O)c1cccc(S(C)(=O)=O)c1)C2(C)C test_result=1000
compound=C[C@@H]1COCCN1c1nc(-c2cccc3[nH]ccc23)nc2c1CN(C(=O)c1ccc3c(c1)OCO3)C2(C)C test_result=1000

* * *

tested-target: Cytochrome P450 2D6 (Homo sapiens)
Sequence (P10635 whole entry): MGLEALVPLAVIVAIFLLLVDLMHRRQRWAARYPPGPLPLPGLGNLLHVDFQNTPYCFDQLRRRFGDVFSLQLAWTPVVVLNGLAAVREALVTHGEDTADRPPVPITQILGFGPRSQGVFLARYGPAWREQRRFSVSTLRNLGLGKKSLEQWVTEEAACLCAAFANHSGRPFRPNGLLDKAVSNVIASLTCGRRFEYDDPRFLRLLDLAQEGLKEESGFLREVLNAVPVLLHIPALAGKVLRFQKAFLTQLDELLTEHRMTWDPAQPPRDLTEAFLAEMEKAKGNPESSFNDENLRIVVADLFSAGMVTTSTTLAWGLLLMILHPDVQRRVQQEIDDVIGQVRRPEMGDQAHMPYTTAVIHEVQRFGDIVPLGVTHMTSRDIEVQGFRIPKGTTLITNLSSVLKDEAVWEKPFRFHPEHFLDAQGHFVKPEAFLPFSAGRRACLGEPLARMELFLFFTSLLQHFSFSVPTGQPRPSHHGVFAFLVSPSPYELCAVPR
parameter-measured: IC50

compound=C[C@@H]1COCCN1c1nc(-c2cccc3[nH]ccc23)nc2c1CN(C(=O)c1cccc(S(C)(=O)=O)c1)C2(C)C parameter_measured=IC50 test_result="> 10 µM"

Source listed as ChEMBL document CHEMBL5331073.
